Target: GST tagged LXRbeta LBD (ligand binding domain) (Homo sapiens, UniProt P55055)
Sequence (P55055 222-460 limits assumed): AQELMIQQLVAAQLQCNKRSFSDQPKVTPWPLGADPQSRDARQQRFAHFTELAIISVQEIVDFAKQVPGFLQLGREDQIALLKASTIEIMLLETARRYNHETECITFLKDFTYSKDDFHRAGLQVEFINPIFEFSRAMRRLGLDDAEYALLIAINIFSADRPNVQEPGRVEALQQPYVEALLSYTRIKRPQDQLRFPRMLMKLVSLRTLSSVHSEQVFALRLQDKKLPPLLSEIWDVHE
Assay: LanthaScreen TR-FRET Liver X Receptor Coactivator Assay, LXR beta-LBD (co-activator recruitment; IP and % Emax relative to T0901317)
Conditions: Inflection Point of co-activator recruitment, LXR beta-LBD, TR-FRET
OBSERVED_PROPERTY: pEC50
Please report pEC50 as the negative decimal logarithm of the molar concentration, giving only the number.

Before answering, review these 3 worked examples.
- CCc1cccc([C@](O)(C(=O)N(C)CCCC2CCN(c3ccc(C(=O)N(C)C)c(Cl)n3)CC2)C(F)(F)F)c1: 6.79
- COc1cccc([C@@](O)(C(=O)NC2(CCC3CCN(c4ccc(C(=O)N(C)C)c(Cl)n4)CC3)CC2)C(F)(F)F)c1: 6.70
- CN(C)C(=O)c1ccc(N2CCC(CCCN(C)C(=O)[C@](O)(c3ccccc3)C3CCC3)CC2)nc1Cl: 7.19

Query block: Form field: pEC50 recorded for CN(C)C(=O)c1ccc(N2CCC(CCCN(C)C(=O)[C@@](O)(c3ccccc3)C3CC3)CC2)nc1Cl with GST tagged LXRbeta LBD (ligand binding domain) (Homo sapiens, UniProt P55055) (enter value)
Result block: 6.96

Where do these numbers come from? They come from patent US10961215B2.
